tested on: mouse liver microsomes, LC-MS/MS, half-life; assay: Inhibitors of Bloom's syndrome helicase: Metabolic Stability Profiling; settings: at 1 µM; stronger effect = higher value
measuredMetric: half-life

# compound O=C(Nc1ccc(F)c(C(F)(F)F)c1)Nc1nnc(-c2ccncc2)s1 ; its half-life = 2 h
